# System: Pseudomonas aeruginosa PA01
# procedure-summary: Serum MIC, broth micro-dilution
# Assay type: cell-based
# measurement-context: Pseudomonas aeruginosa, PA01; 50% v/v mouse serum in Mueller Hinton II cation adjusted Broth, 35° C., 22 hours; Table 4; read-out: P. aeruginosa 01 Serum MIC
MIC by entry:

cpd-smiles	MIC (µM)
Cc1nc(-c2ccc(C(C)(C)C)cc2)nc(C)c1C(=O)N[C@@H](CNS(N)(=O)=O)C(=O)N(C)[C@@H]1C(=O)N[C@@H](C)C(=O)N[C@H](C(=O)O)Cc2ccc(OC[C@H](O)CN)c(c2)-c2cc1cc(OC[C@H](O)CN)c2O	4.3
Cc1nc(-c2ccc(C(C)(C)C)c(F)c2O)nc(N)c1C(=O)N[C@@H](CNS(N)(=O)=O)C(=O)N(C)[C@@H]1C(=O)N[C@@H](C)C(=O)N[C@H](C(=O)O)Cc2ccc(OC[C@H](O)CN)c(c2)-c2cc1cc(OC[C@H](O)CN)c2O	4
Cc1nc(-c2ccc(C(F)(F)C(C)C)cc2)nc(N)c1C(=O)N[C@@H](CNS(N)(=O)=O)C(=O)N(C)[C@@H]1C(=O)N[C@@H](C)C(=O)N[C@H](C(=O)O)Cc2ccc(OC[C@H](O)CN)c(c2)-c2cc1cc(OC[C@H](O)CN)c2O	12
Cc1c(C#N)c(-c2ccc(C(C)(C)C)cc2)nc(N)c1C(=O)N[C@@H](CNS(N)(=O)=O)C(=O)N(C)[C@@H]1C(=O)N[C@@H](C)C(=O)N[C@H](C(=O)O)Cc2ccc(OC[C@H](O)CN)c(c2)-c2cc1cc(OC[C@H](O)CN)c2O	6
C[C@@H]1NC(=O)[C@@H](N(C)C(=O)[C@H](CCN)NC(=O)c2c(N)nc(-c3ccc(C(C)(C)C)cc3)nc2Cl)c2cc(OC[C@H](O)CN)c(O)c(c2)-c2cc(ccc2OC[C@H](O)CN)C[C@@H](C(=O)O)NC1=O	6
Cc1nc(-c2ccc(CC(C)(C)C)cc2)nc(N)c1C(=O)N[C@@H](CNS(N)(=O)=O)C(=O)N(C)[C@@H]1C(=O)N[C@@H](C)C(=O)N[C@H](C(=O)O)Cc2ccc(OC[C@H](O)CN)c(c2)-c2cc1cc(OC[C@H](O)CN)c2O	4
Cc1cc(-c2ccc(C(C)(C)C)cc2F)nc(N)c1C(=O)N[C@@H](CNS(N)(=O)=O)C(=O)N(C)[C@@H]1C(=O)N[C@@H](C)C(=O)N[C@H](C(=O)O)Cc2ccc(OC[C@H](O)CN)c(c2)-c2cc1cc(OC[C@H](O)CN)c2O	8
Cc1nc(-c2ccc(C(C)(C)C)c(F)c2)nc(N)c1C(=O)N[C@@H](CNS(N)(=O)=O)C(=O)N(C)[C@@H]1C(=O)N[C@@H](C)C(=O)N[C@H](C(=O)O)Cc2ccc(OC[C@H](O)CN)c(c2)-c2cc1cc(OC[C@H](O)CN)c2O	4
Cc1cc(C(C)(C)C)cc(O)c1-c1nc(C)c(C(=O)N[C@@H](CNS(N)(=O)=O)C(=O)N(C)[C@@H]2C(=O)N[C@@H](C)C(=O)N[C@H](C(=O)O)Cc3ccc(OC[C@H](O)CN)c(c3)-c3cc2cc(OC[C@H](O)CN)c3O)c(N)n1	3
Cc1nc(-c2ccc(C(C)(C)C)cc2)ncc1C(=O)N[C@@H](CCN)C(=O)N(C)[C@@H]1C(=O)N[C@@H](C)C(=O)N[C@H](C(=O)O)Cc2ccc(OC[C@H](O)CN)c(c2)-c2cc1cc(OC[C@H](O)CN)c2O	16
C[C@@H]1NC(=O)[C@@H](N(C)C(=O)[C@H](CNS(N)(=O)=O)NC(=O)c2c(N)nc(-c3ccc(C(C)(C)C)cc3)nc2Cl)c2cc(OC[C@H](O)CN)c(O)c(c2)-c2cc(ccc2OC[C@H](O)CN)C[C@@H](C(=O)O)NC1=O	3
Cc1nc(-c2c(O)cc3c(c2O)CCC3(C)C)nc(N)c1C(=O)N[C@@H](CNS(N)(=O)=O)C(=O)N(C)[C@@H]1C(=O)N[C@@H](C)C(=O)N[C@H](C(=O)O)Cc2ccc(OC[C@H](O)CN)c(c2)-c2cc1cc(OC[C@H](O)CN)c2O	8
Cc1nc(-c2ccc(C(C)(C)C)cc2)nc(C)c1C(=O)N[C@@H](CN)C(=O)N(C)[C@@H]1C(=O)N[C@@H](C)C(=O)N[C@H](C(=O)O)Cc2ccc(OC[C@H](O)CN)c(c2)-c2cc1cc(OC[C@H](O)CN)c2O	16
Cc1nc(-c2ccc(C3(C)CC3)cc2)nc(N)c1C(=O)N[C@@H](CNS(N)(=O)=O)C(=O)N(C)[C@@H]1C(=O)N[C@@H](C)C(=O)N[C@H](C(=O)O)Cc2ccc(OC[C@H](O)CN)c(c2)-c2cc1cc(OC[C@H](O)CN)c2O	16
Cc1cc(C(C)(C)C)ccc1-c1nc(C)c(C(=O)N[C@@H](CNS(N)(=O)=O)C(=O)N(C)[C@@H]2C(=O)N[C@@H](C)C(=O)N[C@H](C(=O)O)Cc3ccc(OC[C@H](O)CN)c(c3)-c3cc2cc(OC[C@H](O)CN)c3O)c(N)n1	4
Cc1nc(-c2ccc(C(C)(C)C)cc2)nc(N)c1C(=O)N[C@@H](CCNS(N)(=O)=O)C(=O)N(C)[C@@H]1C(=O)N[C@@H](C)C(=O)N[C@H](C(=O)O)Cc2ccc(OC[C@H](O)CN)c(c2)-c2cc1cc(OC[C@H](O)CN)c2O	16
